B1: HDV Ribozyme (parent)
chain: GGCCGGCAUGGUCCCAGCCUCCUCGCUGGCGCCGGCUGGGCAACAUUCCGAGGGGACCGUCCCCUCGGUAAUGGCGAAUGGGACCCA

- Variants of: B1
- assay_name: self-cleavage, relative activity (ratio to wild type); higher = more cleavage; co-transcriptional

alteration | self-cleavage
C4G A51U | 0.284
G50C A51G | 1.07
C30U G31C | 0.13
C41G C63G | 0.517
G28U C57A | 0.102
U9A G10U | 0.855
C14U A70U | 1.08
U65A G67U | 0.767
G31C G73U | 0.0779
C48U U65G | 0.748
C63G G68U | 0.504
U23A C36A | 0.177
G2A G28A | 0.0107
G17U C32U | 0.125
U23G G54C | 0.598
G59A A71C | 0.743
U37G C58A | 0.145
C3G A70G | 0.475
C3A C14U | 0.697
G11A C36U | 0.156
G5A A71G | 0
C14U A45C | 0.646
C15A A87G | 0.776
G54A G81A | 0.511
C33G U37A | 0.225
G54C G81A | 0.393
A8G C26A | 1.11
C44G U72G | 0.446
C3U G38C | 0.122
G6A C48U | 0.759
C13A C36A | 0.0421
C30G G52U | 0.02
C24U U65C | 0.597
G25C U69A | 0.166
G6U U47A | 0.482
C18A G80U | 0.051
G68U A77U | 0.578
C36G C44G | 0
U69C A70G | 0.889
A43C G50U | 0.432
G10C A42C | 0.142
G5A C18A | 0.0875
